- condition-description: [M+H]+; instrument: DT; stepped-field
property: collision cross section (N2) (Å²)

molecule | unit-of-measure | measured-number
N[C@@H](Cc1ccccc1)C(=O)O [L-Phenylalanine] | Å² | 141.28
CC[C@H](C)[C@H](NC(=O)[C@H](Cc1ccc(O)cc1)NC(=O)[C@@H](NC(=O)[C@H](CCCN=C(N)N)NC(=O)[C@@H](N)CC(=O)O)C(C)C)C(=O)N[C@@H](Cc1cnc[nH]1)C(=O)N1CCC[C@H]1C(=O)N[C@@H](Cc1ccccc1)C(=O)O [Angiotensin II] | Å² | 314.38
CC[C@H](C)[C@H](N)C(=O)O [L-Isoleucine] | Å² | 133.81

----------
- condition-description: [M+K]+; instrument: DT; stepped-field
collision cross section (N2) vs 300 Å²: at or above is met, below is not met.

compound | category-label
CCCCC/C=C\C/C=C\CCCCCCCC(=O)O[C@H](COC(=O)CCCCCCCCCCCCCCCCCC)COP(=O)(O)OCCN [PE(37:2)] | not met
CCCCCC=CCC=CCC=CCC=CCC=CCC=CCC(=O)OC[C@H](COP(=O)(O)OC[C@H](N)C(=O)O)OC(=O)CC=CCC=CCC=CCC=CCC=CCC=CCCCCC [PS(48:12)] | met
CCCCC/C=C\C/C=C\C/C=C\CCCCCCC(=O)O[C@H](COC(=O)CCCCCCCCCCCC)COP(=O)([O-])OCC[N+](C)(C)C [PC(33:3)] | not met
CC(=O)N[C@H]1[C@H](O[C@H]2[C@@H](O)[C@@H](CO)O[C@@H](O[C@H]3[C@H](O)[C@@H](O)C(O)O[C@@H]3CO)[C@@H]2O)O[C@H](CO)[C@@H](O)[C@@H]1O[C@@H]1O[C@H](CO)[C@H](O)[C@H](O)[C@H]1O[C@@H]1O[C@@H](C)[C@@H](O)[C@@H](O)[C@@H]1O (stereo partly specified) [Lacto-N-Fucopentaose I] | not met
CCCCC=CCC=CCC=CCC=CCC=CCC=CCC=CCC=CCC(=O)N[C@@H](CO[C@@H]1O[C@H](CO)[C@@H](O)C(O)C1O)[C@H](O)CC=CCCCCCCCCCCCC (stereo partly specified) [GlcCer(47:9)] | met
CCCCCCCCCC/C=C\CCCCCCCCCC(=O)O[C@H](COC(=O)CCCCCCCCCCCC)COP(=O)(O)OCCN [PE(35:1)] | not met

----------
Catalogue of collision cross section (N2) values
- condition-description: [M-H]-; instrument: TW; calibrated with phosphatidylcholines (ESI+) and phosphatidylethanolamines (ESI-), doubly charged cardiolipins calibrated with poly-DL-…

compound | collision cross section (N2) [Å²]
CCCCCCC1CC1CCCCCCCC(=O)OC[C@@H](O)COP(=O)([O-])OCC[NH3+] (some centres undefined) | 208.15
CCCCCCCC/C=C\CCCCCCCC(=O)OC(COC(=O)CCCCCCCCCCCCCCC)COP(=O)(O)OCC(O)CO (centres undefined) | 270.03
CCCCCCCCCCCCCCCC(=O)OCC(COP(=O)(O)OCCN)OC(=O)CCCCCCCCCCCCCCC (centres undefined) | 257.29
CCCCCCCCCCCCCC(=O)O[C@H](CO)COP(=O)([O-])OCC[NH3+] | 198.83

----------
Catalogue of collision cross section (N2) values
- condition-description: [M+H]+; instrument: DT; stepped-field
property: collision cross section (N2) (Å²)

structure-notation | measured-number
CCCCCCC/C=C\CCCCCCCC(=O)O[C@H](COC(=O)CCCCCCCCCCCC)COP(=O)([O-])OCC[N+](C)(C)C | 283.6
CCCCC/C=C\C/C=C\C/C=C\CCCCC(=O)O[C@H](COCCCCCCCCCCCCCCCC)COP(=O)([O-])OCC[N+](C)(C)C | 294
CCCCC/C=C\C/C=C\C/C=C\C/C=C\CCCC(=O)O[C@H](COCCCCCCCCCCCCCCCC)COP(=O)([O-])OCC[N+](C)(C)C | 297.2
CCCC/C=C\CCCCCCCCCCCC(=O)O[C@H](COC(=O)CCCCCCCCCCCCCCCCCCC)COP(=O)(O)OCCN | 299.8
CCCCCC/C=C\CCCCCCCCCC(=O)OC[C@H](COP(=O)([O-])OCC[N+](C)(C)C)OC(=O)CCCCCCC/C=C\CCCCCC | 302.6
CCCCCCCC/C=C\CCCCCCCC(=O)OC[C@@H](O)COP(=O)([O-])OCC[N+](C)(C)C | 236.2
CCCCCC/C=C\CCCCCCCC(=O)OC[C@H](COP(=O)(O)OCCN)OC(=O)CCCCCCCCC/C=C\CCCCCCCCCC | 298.6
CCCCCCCC/C=C\CCCCCCCCCCCC(=O)OC[C@H](COP(=O)([O-])OCC[N+](C)(C)C)OC(=O)CCCCCCCCCCCCC | 306.2
CCCCC/C=C\C/C=C\C/C=C\CCCCC(=O)O[C@H](COCCCCCCCCCCCCCCCCCC)COP(=O)(O)OCCN | 290.1
CCCC/C=C\CCCCCCCCCC(=O)OC[C@H](COP(=O)(O)OCCN)OC(=O)CCCCCCCCC/C=C\CCCC | 276.6
CCCCC/C=C\C/C=C\CCCCCCCCCCCC(=O)O[C@H](COC(=O)CCCCCCC/C=C\CCCCCC)COP(=O)(O)OCCN | 297.1
CC/C=C\C/C=C\C/C=C\CCCCCCCC(=O)OC[C@H](COP(=O)([O-])OCC[N+](C)(C)C)OC(=O)CCCCCC/C=C\C/C=C\C/C=C\CCCCC | 299.9

----------
- condition-description: [M+H]+; instrument: TW; calibrated with polyalanine and drug standards
Doc: threshold 200 Å² (exclusive). Items with collision cross section (N2) beneath it return true; others return false.

molecule | category-label
CN1C2CCC1CC(OC(c1ccccc1)c1ccccc1N)C2 (configuration not stated) | true
CCC(Cc1c(I)cc(I)c(N)c1I)C(=O)O (configuration not stated) | true
COc1ccc2c(c1)OCC(Cc1ccc(OC)c(OC)c1)C2=O (configuration not stated) | true
O=c1ncnc2[nH][nH]cc1-2 | true
O=C(O)CN(CCN(CC(=O)O)CC(=O)O)CCN(CC(=O)O)CC(=O)O | true
O=C(O)C(O)C(O)C(=O)O (configuration not stated) | true
Cn1c(=O)[nH]c(=O)c2[nH]cnc21 | true
C[C@@H]1O[C@@H](OC[C@H]2O[C@@H](Oc3c(-c4ccc(OCCO)c(OCCO)c4)oc4cc(OCCO)cc(O)c4c3=O)[C@H](O)[C@@H](O)[C@@H]2O)[C@H](O)[C@H](O)[C@H]1O | false
COc1cc2occc2c2oc(=O)ccc12 | true
CC(=O)N1CCN(c2ccc(OC[C@H]3CO[C@](Cn4ccnc4)(c4ccc(Cl)cc4Cl)O3)cc2)CC1 | false
O=C1OC(CN2CCOCC2)CN1/N=C/c1ccc([N+](=O)[O-])o1 (configuration not stated) | true
COc1cc2ccc(=O)oc2cc1O | true
CC(C)c1ccc2c(c1)CCC1C(C)(C(N)=O)CCCC21C (configuration not stated) [DEHYDROABIETAMIDE] | true
N[C@@H](COCc1ccccc1)C(=O)O | true
CC(C)(CO)[C@@H](O)C(=O)NCCC(=O)NCCSSCCNC(=O)CCNC(=O)[C@H](O)C(C)(C)CO | false

----------
Catalogue of collision cross section (N2) values
- condition-description: [M+H-H2O]+; instrument: TW; calibrated with polyalanine and drug standards

compound | unit-of-measure | collision cross section (N2)
COc1ccc2c(c1)OC[C@@H](Cc1ccc(OC)c(OC)c1)[C@@H]2O [3-DESHYDROXYSAPPANOL TRIMETHYL ETHER] | Å² | 172.3
COC(=O)C[C@H]1C2(C)CC34OC5(C)O[C@@]6([C@H](OC)C(OC(=O)C(C)C)[C@]7(C)C(/C(=C(/OC)C(C)C)C(=O)O[C@H]7c7ccoc7)[C@@]6(O5)[C@H](OC)[C@@]3(OC)C2OC(C)=O)[C@]14C (stereo partly specified) [CHUKRASIN METHYL ETHER] | Å² | 254.2
COc1cc([C@@H]2c3cc4c(cc3[C@H](O)[C@H]3COC(=O)[C@@H]23)OCO4)cc(OC)c1OC [PICROPODOPHYLLIN] | Å² | 190.9
Cc1cc(O)c(C)c(O)c1C(=O)O [3-METHYLORSELLINIC ACID] | Å² | 127.5
CC(C)CCC[C@@H](C)[C@H]1CC[C@H]2C3=CC[C@H]4C[C@@H](O)CC[C@]4(C)[C@H]3CC[C@]12C [LATHOSTEROL] | Å² | 204
CC1=CC(=O)[C@H]2C(C)(C)CCC[C@]2(C)[C@@]1(O)CCc1ccoc1 [SOLIDAGENONE] | Å² | 170.6
